Catalogue of compounds with associated pKi
biological target: human type II inosine-5′-monophosphate dehydrogenase (IMPDH II) (Homo sapiens, UniProt P12268); construct: human recombinant IMPDH II; experiment: recombinant enzyme assay, NADH formation at […] nm, […] IMP and […] NAD
Sequence (P12268 2-514): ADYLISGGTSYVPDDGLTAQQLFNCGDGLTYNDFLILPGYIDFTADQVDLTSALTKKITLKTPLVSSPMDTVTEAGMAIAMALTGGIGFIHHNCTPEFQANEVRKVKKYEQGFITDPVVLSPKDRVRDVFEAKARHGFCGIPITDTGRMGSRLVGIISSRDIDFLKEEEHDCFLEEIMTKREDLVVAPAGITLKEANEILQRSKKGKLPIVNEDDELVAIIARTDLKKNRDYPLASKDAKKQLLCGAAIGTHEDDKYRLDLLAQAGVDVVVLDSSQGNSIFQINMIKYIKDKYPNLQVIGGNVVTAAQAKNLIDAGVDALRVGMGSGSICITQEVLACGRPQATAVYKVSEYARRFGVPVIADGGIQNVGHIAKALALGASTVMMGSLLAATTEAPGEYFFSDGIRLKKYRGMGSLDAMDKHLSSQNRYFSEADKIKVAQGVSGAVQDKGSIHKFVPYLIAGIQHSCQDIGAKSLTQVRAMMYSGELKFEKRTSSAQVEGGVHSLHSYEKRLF
Scale: negative log10 of molar concentration, which is what pKi denotes.

# Compound, Assay readout, Data value
records = [
    ("O=c1[nH]cnc2c1ncn2C1C=CC(OCP(=O)(O)O)C1 (centres unmarked) [compound 1]", "pKi", 3.32),
]

Next:
# pKi (compound: O=c1[nH]cnc2c1ncn2C1CC(OCP(=O)(O)O)C(O)C1O (centres unmarked) [compound 2] ) is 3.01

* * *

target: human type II inosine-5′-monophosphate dehydrogenase (IMPDH II) (Homo sapiens, UniProt P12268); construct: human recombinant IMPDH II; assay: recombinant enzyme assay, NADH formation at […] nm; positive control
Assay readout: pIC50
Scale: negative log10 of molar concentration, which is what pIC50 denotes.

# pIC50 (molecule: NC(=O)c1ncn([C@@H]2O[C@H](COP(=O)(O)O)[C@@H](O)[C@H]2O)n1 [Ribavirin monophosphate] ) is 5.70
